# System: DIV14
# method_summary: qHTS profiling for inhibitors of Plasmodium falciparum proliferation (AID 504749); further: nearly all actives have a fitted effect of over 60% in size
# condition_notes: P. falciparum in erythrocytes, SYBR Green DNA, 72 h; series mostly up to 28.7 µM
Results filed as inconclusive are left out. The source made the active and inactive calls. The call rests on the fitted dose curve; in most records, active means well fitted inhibition curve with a large enough effect; inconclusive means small, poorly fitted or top-dose-only effect; inactive means flat fitted curve, though single readings scatter.
The reply should name one outcome from True for active, False for inactive

Example entries begin here.
{"columns": ["molecule", "assigned_category"],
 "data": [
  ["Fc1ccc(C(c2ccc(F)cc2)N2CCN(CC=Cc3ccccc3)CC2)cc1", "True"],
  ["COc1ccnc(CS(=O)c2nc3ccc(OC(F)F)cc3[nH]2)c1OC (configuration not stated)", "False"],
  ["NS(=O)(=O)c1cc(Cl)c(Cl)c(S(N)(=O)=O)c1", "False"],
  ["N#Cc1c(N(CC(=O)O)CC(=O)O)sc(C(=O)O)c1CC(=O)O", "False"],
  ["O=C(O)c1nc(=O)[nH]c(=O)[nH]1", "False"]
]}

stdin: Please state the recorded outcome for this molecule: Clc1ccc(COC(Cn2ccnc2)c2ccc(Cl)cc2Cl)c(Cl)c1 (configuration not stated)
stdout: True

stdin: Also need C=C1c2cccc(O)c2C(O)=C2C(=O)[C@@]3(O)C(O)=C(C(N)=O)C(=O)[C@@H](N(C)C)[C@@H]3[C@@H](O)[C@H]12 , thanks.
stdout: False

###

# method_summary: Quantitative High-Throughput drug screen in 47 multiple myeloma cell lines against the NCATS MIPE library collection: ARP1_JJKsccF8 cell viability assay (AID 1918928; further: nearly all actives have a fitted effect of over 40% in size)
# condition_notes: ARP1 myeloma cells viability, CellTiter-Glo ATP, 48 h; series mostly up to 45.8 µM
Results filed as inconclusive are left out. Calls of active or inactive are those of the source. Calls follow the shape of the dose curve; as a rule, active = well fitted cell-killing curve with a large enough effect; inconclusive = small, poorly fitted or top-dose-only effect, or effect the other way; inactive = no such curve, though single readings can be large or run the other way.
A correct response names exactly one class from active, inactive

{"columns": ["compound", "assigned_category"],
 "data": [
  ["CC(NCCc1ccc(O)cc1)C(O)c1ccc(O)cc1 (stereo not given)", "inactive"]
]}

stdin: Tell me the assay call for CCn1c(-c2nonc2N)nc2cncc(CNC3CCNCC3)c21 please.
stdout: active

stdin: Another compound to look at: CN(C)CCN(C)C(=O)c1ccc(NC(=O)Nc2ccc(-c3nc(N4CCOCC4)c4ccn(CC(F)(F)F)c4n3)cc2)cc1
stdout: active

stdin: Ok, now CCc1cc(-c2n[nH]c(C)c2-c2ccc3c(c2)OCCO3)c(O)cc1O
stdout: active

stdin: And the next one, CN[C@@H]1CN(c2ccc3c(=O)c(C(=O)O)cn(-c4nccs4)c3n2)C[C@@H]1OC ?
stdout: active

###

# method_summary: Quantitative High-Throughput drug screen in 47 multiple myeloma cell lines against the NCATS MIPE library collection: KHM11_PLB cell viability assay (AID 1918962); further: nearly all actives have a fitted effect of over 35% in size; further: potency means the concentration at half of the fitted maximal effect
# condition_notes: KHM11 myeloma cell viability, CellTiter-Glo ATP luminescence, 48 h; series mostly up to 45.8 µM
Records with an inconclusive call do not appear. Activity calls are given as the source filed them. The call rests on the fitted dose curve; in most records, active means well fitted cell-killing curve with a large enough effect; inconclusive means small, poorly fitted or top-dose-only effect, or effect the other way; inactive means no such curve, though single readings can be large or run the other way.
experimental_endpoint: Potency

{"columns": ["molecule", "experimental_endpoint", "endpoint_result"],
 "data": [
  ["OC[C@H]1O[C@@H](OCCc2ccc(O)cc2)[C@H](O)[C@@H](O)[C@H]1O", "Potency", "inactive"],
  ["CC[C@H](C=C[C@@H](C)[C@H]1CC[C@H]2[C@@H]3CC=C4C[C@@H](O)CC[C@]4(C)[C@@H]3CC[C@]12C)C(C)C", "Potency", "inactive"],
  ["CCC(=C(CC)c1ccc(O)cc1)c1ccc(O)cc1", "Potency", "inactive"],
  ["COc1cc(C=CC(=O)O)ccc1O", "Potency", "inactive"],
  ["CCN1C[C@H](C)n2c(c(O)c3c(=O)n(Cc4ccc(F)c(Cl)c4)nc(C(=O)NC)c32)C1=O", "Potency", "inactive"]
]}

stdin: Return reported Potency; argument: O=C(CC12CC3CC(CC(C3)C1)C2)Nc1cccc2nc(NCCNCCO)ccc12
stdout: 5.26 µM (active)

stdin: Further, for CCN1CCC(n2cc(CNc3cc(Cl)c4ncc(C#N)c(Nc5ccc(F)c(Cl)c5)c4c3)nn2)CC1 ?
stdout: 16.6 µM (active)

stdin: Here is the next molecule: Cc1cc(C(C)Nc2ccccc2)c2nc(N3CCOCC3)cc(=O)n2c1 (stereo not drawn)
stdout: 1.48 µM (active)

stdin: Try C=C1c2cccc(O)c2C(O)=C2C(=O)[C@@]3(O)C(O)=C(C(N)=O)C(=O)[C@@H](N(C)C)[C@@H]3[C@@H](O)[C@H]12 next.
stdout: inactive

stdin: Moving on to CN1N=C(N)c2cn([C@@H]3O[C@H](COP(=O)(O)O)[C@@H](O)[C@@H]3O)c3ncnc1c23
stdout: 0.372 µM (active)

stdin: Also check CC1(COc2ccc3c(c2)ncn3-c2ccc3cccc(N4CCC(N)CC4)c3n2)COC1
stdout: 0.0148 µM (active)

stdin: Would you mind doing O=C(Nc1cccc(Cl)c1)Nc1ncc(CCNc2ncnc3ccsc23)s1 as well?
stdout: 4.18 µM (active)

stdin: Now consider COc1cc([C@@H]2c3cc4c(cc3[C@@H](O[C@@H]3O[C@@H]5CO[C@@H](C)O[C@@H]5[C@H](O)[C@@H]3O)[C@H]3COC(=O)[C@H]23)OCO4)cc(OC)c1O .
stdout: inactive

stdin: Request: CC[C@H](C)n1cc(C)c2c(C(=O)NCc3c(C)cc(C)[nH]c3=O)cc(-c3ccc(N4CCNCC4)nc3)cc21
stdout: 29.6 µM (active)

stdin: Let us now turn to c1cc(OCCN2CCCCC2)cc(-c2n[nH]c3ccc(-c4ncn[nH]4)cc23)c1
stdout: 14.8 µM (active)

stdin: Try COc1ccc2nc3cc(Cl)ccc3c(Nc3cc(CN4CCCC4)c(O)c(CN4CCCC4)c3)c2n1 next.
stdout: 20.9 µM (active)

stdin: Also Nc1ncnc2c1c(-c1cccc(OCc3ccccc3)c1)cn2C1CC(CN2CCC2)C1 (stereo not drawn) , if possible.
stdout: 16.6 µM (active)

stdin: Now consider O=C(O)C1=CC(O)C(O)[C@H](O)C1 (stereo partly drawn) .
stdout: inactive
